Taken from the supplement of paper PMC10567573.

The entries below come with measured protein stability index values attached.
B1: ZNF449 (parent)
chain: TLHQRTHTEERPFKCNYCGKSFRQ

Variants of: B1
methodDescription: protein stability index of a GFP-peptide fusion (GPS, HEK-293T) (PSI 1-6); higher = more stable;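 note: lentivirally expressed fusions sorted by FACS into six bins by GFP to DsRed ratio, PSI derived from sequencing read proportions per bin multiplied by bin number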
recordedConditions: c terminus: a fixed tail appended
quantityMeasured: protein stability index

[
  {
    "variantDesignation": "P12C",
    "quantityMeasured": "protein stability index",
    "recordedMeasurement": 2.94
  },
  {
    "variantDesignation": "N16A",
    "quantityMeasured": "protein stability index",
    "recordedMeasurement": 2.44
  },
  {
    "variantDesignation": "P12K",
    "quantityMeasured": "protein stability index",
    "recordedMeasurement": 2.89
  },
  {
    "variantDesignation": "G19L",
    "quantityMeasured": "protein stability index",
    "recordedMeasurement": 2.72
  },
  {
    "variantDesignation": "E9Y",
    "quantityMeasured": "protein stability index",
    "recordedMeasurement": 2.19
  },
  {
    "variantDesignation": "C18L",
    "quantityMeasured": "protein stability index",
    "recordedMeasurement": 2.61
  },
  {
    "variantDesignation": "Q4D",
    "quantityMeasured": "protein stability index",
    "recordedMeasurement": 2.41
  },
  {
    "variantDesignation": "H7C",
    "quantityMeasured": "protein stability index",
    "recordedMeasurement": 2.66
  },
  {
    "variantDesignation": "L2E",
    "quantityMeasured": "protein stability index",
    "recordedMeasurement": 3.64
  },
  {
    "variantDesignation": "Y17V",
    "quantityMeasured": "protein stability index",
    "recordedMeasurement": 2.32
  },
  {
    "variantDesignation": "K20L",
    "quantityMeasured": "protein stability index",
    "recordedMeasurement": 2.07
  }
]
